Every entry's value here was drawn from the supplement of paper PMC12667976.

B1: library; numbered along this chain (parent)
chain: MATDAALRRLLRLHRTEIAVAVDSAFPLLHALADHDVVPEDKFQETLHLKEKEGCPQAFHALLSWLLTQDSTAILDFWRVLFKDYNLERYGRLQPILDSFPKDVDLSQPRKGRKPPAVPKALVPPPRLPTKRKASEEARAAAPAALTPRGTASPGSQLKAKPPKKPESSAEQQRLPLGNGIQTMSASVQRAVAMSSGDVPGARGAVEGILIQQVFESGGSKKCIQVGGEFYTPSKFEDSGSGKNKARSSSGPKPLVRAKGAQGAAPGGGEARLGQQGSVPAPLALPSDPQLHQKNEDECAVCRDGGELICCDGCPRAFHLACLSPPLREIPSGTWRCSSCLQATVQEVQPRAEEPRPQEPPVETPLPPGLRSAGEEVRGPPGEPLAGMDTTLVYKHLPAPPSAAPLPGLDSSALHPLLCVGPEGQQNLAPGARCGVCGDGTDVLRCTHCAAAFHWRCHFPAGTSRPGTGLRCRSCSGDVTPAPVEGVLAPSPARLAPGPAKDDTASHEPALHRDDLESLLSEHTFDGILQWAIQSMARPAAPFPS

Variants of: B1
assay details: AIRE transcriptional activation functional score (insulin promoter-GFP; nonsense median 0, synonymous median 1) (normalised score); higher = higher AIRE activity (more reporter activation)
stated conditions: with insulin promoter-GFP reporter in HEK293
Item-by-item account of AIRE transcriptional activation functional score
measured endpoint: AIRE transcriptional activation functional score

[
  {
    "alteration": "L320K",
    "observed measurement": 0.922
  },
  {
    "alteration": "H415A",
    "observed measurement": 1.08
  },
  {
    "alteration": "A540R",
    "observed measurement": 0.119
  },
  {
    "alteration": "T344Y",
    "observed measurement": 0.912
  },
  {
    "alteration": "L516H",
    "observed measurement": 0.715
  },
  {
    "alteration": "G424H",
    "observed measurement": 0.363
  },
  {
    "alteration": "H454P",
    "observed measurement": 0.129
  },
  {
    "alteration": "Q57M",
    "observed measurement": -0.643
  },
  {
    "alteration": "L414C",
    "observed measurement": 0.792
  },
  {
    "alteration": "P109L",
    "observed measurement": 0.821
  },
  {
    "alteration": "V436T",
    "observed measurement": 0.824
  },
  {
    "alteration": "L470V",
    "observed measurement": 0.842
  },
  {
    "alteration": "I309D",
    "observed measurement": 0.964
  },
  {
    "alteration": "G227S",
    "observed measurement": 0.225
  },
  {
    "alteration": "H507L",
    "observed measurement": 1.01
  },
  {
    "alteration": "G469W",
    "observed measurement": 1.08
  },
  {
    "alteration": "A33I",
    "observed measurement": -1.54
  },
  {
    "alteration": "A432K",
    "observed measurement": 0.599
  },
  {
    "alteration": "L210W",
    "observed measurement": 0.57
  },
  {
    "alteration": "G268S",
    "observed measurement": 1.09
  },
  {
    "alteration": "D98Y",
    "observed measurement": 0.0432
  },
  {
    "alteration": "G267R",
    "observed measurement": 0.84
  }
]
